- test.name: AUC in Sprague-Dawley rat at 5 mg/kg, iv
- Type: ADME, organism-based
- Design: dose 5 mg/kg, route intravenous
- condition.notes: plasma
quantity.kind: AUC (ng·h/mL)
Answer with a number only, understood to be in ng·h/mL.

Request the reported AUC associated with CCCCn1c(=O)c2cccnc2n1Cc1ccc(-c2ccccc2-c2nn[nH]n2)cc1
1410

----------
- system.name: UniProt:P25095
- test.name: Displacement of [125I]Sar1,Ile8-Ang2 from AT1 receptor in Wistar rat hepatic membrane
pIC50: −log10 of the molar value.
Please note: fulfilled applies when pIC50 is 7 or greater, and not fulfilled applies otherwise.

// inclusive: pIC50 at least 7? input: CCC1c2ncccc2C(=O)N1Cc1ccc(-c2ccccc2-c2nn[nH]n2)cc1 (stereo not given)
not fulfilled

// inclusive: pIC50 at least 7? input: CCCn1c(=O)c2ccc(C)nc2n1Cc1ccc(-c2ccccc2-c2nnn[nH]2)cc1
not fulfilled

// inclusive: pIC50 at least 7? input: CC(C)Cn1c(=O)c2cccnc2n1Cc1ccc(-c2ccccc2-c2nn[nH]n2)cc1
not fulfilled

// inclusive: pIC50 at least 7? input: CCCCn1c2ncccc2c(=O)n1Cc1ccc(-c2ccccc2-c2nnn[nH]2)cc1
fulfilled

// inclusive: pIC50 at least 7? input: CCCCn1c(=O)c2cccnc2n1Cc1ccc(-c2ccccc2-c2nn[nH]n2)cc1
fulfilled

// inclusive: pIC50 at least 7? input: CCCN1C(=O)c2cccnc2C1Cc1ccc(-c2ccccc2-c2nn[nH]n2)cc1 (stereo not given)
not fulfilled

// inclusive: pIC50 at least 7? input: CCCCn1c(=O)c2ccc(Cl)nc2n1Cc1ccc(-c2ccccc2-c2nnn[nH]2)cc1
not fulfilled

----------
- system.name: Type-1 angiotensin II receptor A (Rattus norvegicus)
- Sequence (P25095 whole entry): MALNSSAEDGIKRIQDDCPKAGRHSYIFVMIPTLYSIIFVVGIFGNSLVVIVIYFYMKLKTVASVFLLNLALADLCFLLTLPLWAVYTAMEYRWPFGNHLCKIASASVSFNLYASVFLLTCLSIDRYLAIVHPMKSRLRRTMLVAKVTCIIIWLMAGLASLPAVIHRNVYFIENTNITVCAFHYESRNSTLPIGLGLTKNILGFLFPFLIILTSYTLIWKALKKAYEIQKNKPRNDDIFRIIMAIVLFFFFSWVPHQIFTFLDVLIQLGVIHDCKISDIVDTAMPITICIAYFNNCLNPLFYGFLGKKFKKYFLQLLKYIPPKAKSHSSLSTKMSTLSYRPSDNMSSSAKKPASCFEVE
- test.name: Displacement of [125I]Sar1,Ile8-Ang2 from AT1 receptor in Wistar rat hepatic membrane
Rule: IC50 below 100 nM gives MET, anything at or above gives NOT MET.

Is IC50 strictly under 100 nM for the entry CCCCn1nc(OCc2ccc(-c3ccccc3-c3nn[nH]n3)cc2)c2cccnc2c1=O ?
NOT MET

Is IC50 strictly under 100 nM for the entry CCCn1nc(OCc2ccc(-c3ccccc3-c3nnn[nH]3)cc2)c2cccnc21 ?
NOT MET

Is IC50 strictly under 100 nM for the entry CCCCn1c(=O)c2cc(F)cnc2n1Cc1ccc(-c2ccccc2-c2nnn[nH]2)cc1 ?
MET

Is IC50 strictly under 100 nM for the entry CCCCC1c2ncccc2C(=O)N1Cc1ccc(-c2ccccc2-c2nn[nH]n2)cc1 (stereo not given) ?
MET

Is IC50 strictly under 100 nM for the entry CCCCn1nc(OCc2ccc(-c3ccccc3-c3nnn[nH]3)cc2)c2cccnc21 ?
NOT MET

Is IC50 strictly under 100 nM for the entry O=c1c2cccnc2n(Cc2ccc(-c3ccccc3-c3nn[nH]n3)cc2)n1Cc1ccccc1 ?
NOT MET

Is IC50 strictly under 100 nM for the entry CC(C)CCn1c(=O)c2cccnc2n1Cc1ccc(-c2ccccc2-c2nnn[nH]2)cc1 ?
NOT MET

Is IC50 strictly under 100 nM for the entry CCCCn1c(=O)c2cc(Cl)cnc2n1Cc1ccc(-c2ccccc2-c2nnn[nH]2)cc1 ?
MET

Is IC50 strictly under 100 nM for the entry CCn1c(=O)c2ccc(C)nc2n1Cc1ccc(-c2ccccc2-c2nnn[nH]2)cc1 ?
NOT MET

Is IC50 strictly under 100 nM for the entry CCCCCn1c(=O)c2cccnc2n1Cc1ccc(-c2ccccc2-c2nnn[nH]2)cc1 ?
MET

Is IC50 strictly under 100 nM for the entry CCCCn1c(=O)c2ccc(NC)nc2n1Cc1ccc(-c2ccccc2-c2nn[nH]n2)cc1 ?
NOT MET

Is IC50 strictly under 100 nM for the entry CCCCn1c(=O)c2cc(F)c(Cl)nc2n1Cc1ccc(-c2ccccc2-c2nnn[nH]2)cc1 ?
NOT MET

Is IC50 strictly under 100 nM for the entry CCCCn1c(=O)c2ccccc2n1Cc1ccc(-c2ccccc2-c2nnn[nH]2)cc1 ?
NOT MET

Is IC50 strictly under 100 nM for the entry CCCCn1c2nc(Cl)ccc2c(=O)n1Cc1ccc(-c2ccccc2-c2nn[nH]n2)cc1 ?
NOT MET

Is IC50 strictly under 100 nM for the entry CCCC1c2ncccc2C(=O)N1Cc1ccc(-c2ccccc2-c2nn[nH]n2)cc1 (stereo not given) ?
NOT MET

Recorded values, source ChEMBL document CHEMBL1145541.
